Assay: Pharmacokinetics of Sax in plasma after oral 0.5 mg/kg (HPLC-MS/MS, noncompartmental analysis)
Assay type: in vivo, GK rats
Conditions: GK, rat, plasma, po, 0.5 mg/kg, depression group (CUMS-induced, GK rats), 0.5 mg/kg oral, n = 9, mean ± SD; read-out: MRT0−t
Procedure: All rats were fasted overnight but with free access to water. 0.5 mg/kg Sax (suspended in 5 g/L Carboxymethyl cellulose-Na) was given orally. Blood samples were collected by eye canthus at 0.17, 0.33, 0.5, 0.83, 1.17, 1.5, 2, 3, 5, 8 h. Then plasma samples were centrifuged to obtain plasma at 3,000 × g for 5 min. The samples were stored at −80 °C for analysis. The Sax concentration was assayed by the HPLC-tandem mass spectrometry (MS/MS) method ([Gao et al., 2012]). […]
measurement name: MRT last (h)
Entry rule: numbers only, all in h.

Suppose we examine the molecule "N#C[C@@H]1C[C@@H]2C[C@@H]2N1C(=O)[C@@H](N)C12CC3CC(CC(O)(C3)C1)C2" ; what MRT last value has been reported?
1.95

====

test: Pharmacokinetics of Sax in plasma after oral 0.5 mg/kg (HPLC-MS/MS, noncompartmental analysis); type: in vivo, GK rats; settings: GK, rat, plasma, po, 0.5 mg/kg, control group (diabetic GK rats), 0.5 mg/kg oral, n = 9, mean ± SD; read-out: MRT0−t
measurement name: MRT last (h)
Note: unit h is implicit; provide only the numeric part.

Quick check: MRT last of "N#C[C@@H]1C[C@@H]2C[C@@H]2N1C(=O)[C@@H](N)C12CC3CC(CC(O)(C3)C1)C2" ?
2.55

====

experiment: Pharmacokinetics of Sax in plasma after oral 0.5 mg/kg (HPLC-MS/MS, noncompartmental analysis); type: in vivo, GK rats; details: GK, rat, plasma, po, 0.5 mg/kg, control group (diabetic GK rats), 0.5 mg/kg oral, n = 9, mean ± SD
measurement name: AUC(0-inf) (ng·h/mL)
Note: unit ng·h/mL is implicit; provide only the numeric part.

What value of measured AUC(0-inf) is listed for "N#C[C@@H]1C[C@@H]2C[C@@H]2N1C(=O)[C@@H](N)C12CC3CC(CC(O)(C3)C1)C2" ?
67.1

====

experiment: Pharmacokinetics of Sax in plasma after oral 0.5 mg/kg (HPLC-MS/MS, noncompartmental analysis); format: in vivo, GK rats; details: GK, rat, plasma, po, 0.5 mg/kg, depression group (CUMS-induced, GK rats), 0.5 mg/kg oral, n = 9, mean ± SD; read-out: T1/2z (converted)
measurement name: half-life (h)
Number in h, nothing else.

# query: half-life of entry "N#C[C@@H]1C[C@@H]2C[C@@H]2N1C(=O)[C@@H](N)C12CC3CC(CC(O)(C3)C1)C2"
1.58

====

experiment: Pharmacokinetics of Sax in plasma after oral 0.5 mg/kg (HPLC-MS/MS, noncompartmental analysis); format: in vivo, GK rats; conditions: GK, rat, plasma, po, 0.5 mg/kg, depression group (CUMS-induced, GK rats), 0.5 mg/kg oral, n = 9, mean ± SD
measurement name: Cmax (ng/mL)
The reply should be a number in ng/mL, with the unit left off.

So what does the record say about Cmax for N#C[C@@H]1C[C@@H]2C[C@@H]2N1C(=O)[C@@H](N)C12CC3CC(CC(O)(C3)C1)C2 [Sax] ?
14.8

Where do the numbers come from? From paper PMC4727972.
